- Test system: L. donovani (MHOM-ET-67/L82, axenically grown amastigotes)
- Run Description: in vitro activity on L. donovani, serial dilution assay
- Assay type: cell-based, Leishmania donovani
- Experimental Parameters: SI = IC50 cytotoxicity (L6)/IC50 in L. donovani
Field: label. Allowed values: Condition met (Selectivity index (SI) L. donovani < 5) or Condition not met (Selectivity index (SI) L. donovani >= 5).

query: Consider the compound C=C(C)[C@@H]1CC[C@]2(C(=O)O)CC[C@]3(C)[C@H](CC[C@@H]4[C@@]5(C)C[C@@H](O)[C@H](OC(=O)/C=C/c6ccc(O)cc6)C(C)(C)[C@@H]5CC[C@]43C)[C@@H]12 [Compound 18, 3-O-trans-p-coumaroylalphitolic acid] . Is its Selectivity index (SI) L. donovani strictly less than 5?
result: Condition not met

query: Identify whether the compound CC(C)=CCC1=C(Cl)C(=O)c2c(O)ccc(O)c2C1=O [Compound 21] records Selectivity index (SI) L. donovani below 5.
result: Condition met

query: Does this compound meet the criterion Selectivity index (SI) L. donovani < 5? C=C(C)[C@H](O)CC1=C(O)C(=O)c2c(O)ccc(O)c2C1=O [Compound 22]
result: Condition met

query: API: query returns whether the compound falls strictly under 5 in Selectivity index (SI) L. donovani. Query: CC(C)=CCC1=C(O)C(=O)c2c(O)ccc(O)c2C1=O [Compound 20]
result: Condition not met

query: I wonder whether C=C(C)[C@@H]1CC[C@]2(C(=O)O)CC[C@]3(C(=O)O)[C@H](CC[C@@H]4[C@@]5(C)C=CC(C)(C)[C@@H]5CC[C@]43C)[C@@H]12 [Compound 17, ceanothenic acid] has Selectivity index (SI) L. donovani below 5. Can you tell?
result: Condition not met

query: Find out if reported Selectivity index (SI) L. donovani for C=C(C)C1CCC2(C(=O)O)CCC3(C)C(CCC4C5(C)C(C(=O)O)C(OC(=O)c6ccccc6)C(C)(C)C5CCC43C)C12 [Compound 16, (1S, 3S)-3-O-benzoyl ceanothic acid] is less than 5
result: Condition not met

query: Field: below-cutoff. Rule: recorded Selectivity index (SI) L. donovani strictly less than 5. Subject: C=C(C)C12CCC3(CCC4(C)C(CCC5C6(C)C(C(=O)O)C(O)C(C)(C)C6CCC54C)C31)C(=O)O2 (stereo not drawn) [Compound 13]
result: Condition not met

query: Would you kindly verify if Selectivity index (SI) L. donovani of COc1cc([C@@H]2OC[C@@H]3[C@H]2CO[C@H]3c2cc(OC)c(O)c(OC)c2)cc(OC)c1O [Compound 30] is strictly less than 5?
result: Condition met

query: Please let me know if C=C(C)C1CCC2(C(=O)O)CCC3(C)C(CCC4C5(C)C(C(=O)O)C(OC(=O)c6ccccc6)C(C)(C)C5CCC43C)C12 [Compound 15, (1R, 3S)-3-O-benzoyl ceanothic acid] shows Selectivity index (SI) L. donovani below 5.
result: Condition not met

query: Determine if CC1(C)C=CC2=C(O1)C(=O)c1c(O)ccc(O[C@@H]3O[C@H](CO)[C@@H](O)[C@H](O)[C@H]3O)c1C2=O [Compound 29] shows Selectivity index (SI) L. donovani strictly lower than 5.
result: Condition met

query: Please state whether Selectivity index (SI) L. donovani is below 5 for C=C(C)[C@@H]1CC[C@]2(C(=O)O)CC[C@]3(C)[C@H](CC[C@@H]4[C@@]5(C)[C@H](C=O)[C@@H](O)C(C)(C)[C@@H]5CC[C@]43C)[C@@H]12 [Compound 14, colubrinic acid]
result: Condition not met

query: Please let me know if CC(C)=CC[C@@]12O[C@@H]1C(O)c1c(O)ccc(O)c1C2=O (stereo partly drawn) [Compound 25] shows Selectivity index (SI) L. donovani below 5.
result: Condition met

query: In the record for CC(C)=CC[C@@]12O[C@@H]1C(=O)c1c(O)ccc(O[C@@H]3O[C@H](CO)[C@@H](O)[C@H](O)[C@H]3O)c1C2=O [Compound 26] , is Selectivity index (SI) L. donovani less than 5?
result: Condition met

====

- System: L. donovani (MHOM-ET-67/L82, axenically grown amastigotes)
- Run Description: in vitro activity on L. donovani, serial dilution assay
- Format: cell-based, Leishmania donovani
- Experimental Parameters: Leishmania donovani, 72 h, axenic amastigotes; 72 h exposure; means of two independent assays ± deviation from the mean; read-out: IC50 L. donovani
Would you kindly list IC50 for each of these compounds?
The reply should contain only the number, in nM.

query: May I ask what IC50 has been recorded for CCCCCCCCCCCCCCCCOP(=O)([O-])OCC[N+](C)(C)C [Miltefosine, reference compound] ?
result: 520

query: Give its IC50 value. Item: CC(C)=CCC1=C(Cl)C(=O)c2c(O)ccc(O)c2C1=O
result: 3000

====

- System: L6 cells (ATCC, CRL-1458, rat skeletal myoblasts)
- Run Description: cytotoxicity in L6 cells
- Format: cell-based
- Experimental Parameters: rat, 72 h
Test Readout: IC50
Note to self: number, then unit, no commentary.

query: Entry C=C(C)C1CCC2(C(=O)O)CCC3(C)C(CCC4C5(C)C(C(=O)O)C(OC(=O)c6ccccc6)C(C)(C)C5CCC43C)C12 (stereo not shown) : reported IC50 = ?
result: 32.3 µM

====

- Test system: T. b. rhodesiense (STIB900, trypomastigotes)
- Run Description: in vitro activity on T. b. rhodesiense, serial dilution assay
- Type: cell-based, Trypanosoma brucei rhodesiense
- Experimental Parameters: SI = IC50 cytotoxicity (L6)/IC50 in T. b. rhodesiense
Test Readout: Selectivity index (SI) T. b. rhodesiense

query: Under T. b. rhodesiense (STIB900, trypomastigotes): Selectivity index (SI) T. b. rhodesiense value of CC(C)=CCC1=C(Cl)C(=O)c2c(O)ccc(O)c2C1=O ?
result: 15.8

query: # returns recorded Selectivity index (SI) T. b. rhodesiense (system: T. b. rhodesiense (STIB900, trypomastigotes)) for CC(C)=CC[C@@]12O[C@@H]1C(O)c1c(O)ccc(O)c1C2=O (stereo partly shown)
result: 7.6

query: Give T. b. rhodesiense (STIB900, trypomastigotes) Selectivity index (SI) T. b. rhodesiense for C=C(C)C1CCC2(C(=O)O)CCC3(C)C(CCC4C5(C)C(C(=O)O)C(OC(=O)c6ccccc6)C(C)(C)C5CCC43C)C12 [Compound 16, (1S, 3S)-3-O-benzoyl ceanothic acid]
result: 1.1

query: Which Selectivity index (SI) T. b. rhodesiense is reported with T. b. rhodesiense (STIB900, trypomastigotes) for this entry: C=C(C)C1CCC2(C(=O)O)CCC3(C)C(CCC4C5(C)C(C(=O)O)C(OC(=O)c6ccccc6)C(C)(C)C5CCC43C)C12 [Compound 15, (1R, 3S)-3-O-benzoyl ceanothic acid] ?
result: 1.4

====

- Test system: T. cruzi (Tulahuen C2C4, intracellular amastigotes)
- Run Description: in vitro activity on T. cruzi, serial dilution assay
- Format: cell-based, Trypanosoma cruzi
- Experimental Parameters: Trypanosoma cruzi, TULAHUEN, 96 h, 96 h exposure; means of two independent assays ± deviation from the mean; read-out: IC50 T. cruzi
Test Readout: IC50 (µM)
Numeric only. Scale: µM

query: Given CC(C)=CCC1=C(Cl)C(=O)c2c(O)ccc(O)c2C1=O , state its recorded IC50.
result: 21.5

query: For the molecule C=C(C)[C@@H]1CC[C@]2(C(=O)O)CC[C@]3(C)[C@H](CC[C@@H]4[C@@]5(C)C[C@@H](O)[C@H](OC(=O)/C=C/c6ccc(O)cc6)C(C)(C)[C@@H]5CC[C@]43C)[C@@H]12 [Compound 18, 3-O-trans-p-coumaroylalphitolic acid] , what IC50 is on record?
result: 19.5

query: // lookup IC50 for O=C(Cn1ccnc1[N+](=O)[O-])NCc1ccccc1 [Benznidazole, reference compound]
result: 2.3

query: Fill blank: measured IC50 of the molecule CC(C)=CC[C@@]12O[C@@H]1C(=O)c1c(O)ccc(O[C@@H]3O[C@H](CO)[C@@H](O)[C@H](O)[C@H]3O)c1C2=O is ____.
result: 39.2

query: # IC50 lookup, item CCC(C)[C@@H]1NC(=O)[C@@H]2[C@H](CCN2C(=O)[C@H](Cc2c[nH]c3ccccc23)NC(=O)[C@H](CC(C)C)NC)Oc2ccc(OC)c(c2)/C=C\NC1=O (stereo partly shown)
result: 15.7

====

- Run Description: cytotoxicity in L6 cells
- Assay type: cell-based, rat
- Experimental Parameters: rat, L6 cells (rat skeletal myoblasts, ATCC CRL-1458), rat skeletal myoblast (L6 cells); 72 h exposure; means of two independent assays ± deviation from the mean; read-out: IC50 Cytotoxicity
I'd appreciate it if you could supply IC50 at 72 h values for the items below.

query: For the compound shown here, C=C(C)[C@H](O)CC1=C(O)C(=O)c2c(O)ccc(O)c2C1=O , give the reported IC50 at 72 h.
result: 30.4 µM

query: Please give the measured IC50 at 72 h for this compound: CC(C)C[C@@H]1NC(=O)[C@@H](NC(=O)[C@H](Cc2c[nH]c3ccccc23)N(C)C)[C@H](C(C)C)Oc2ccc(cc2)/C=C\NC1=O
result: 33.6 µM

query: Find the recorded IC50 at 72 h belonging to CC(C)=CC[C@@]12O[C@@H]1C(O)c1c(O)ccc(O)c1C2=O (some centres unmarked) and report it.
result: 19 µM

query: Quick one: IC50 at 72 h of CN[C@@H](Cc1ccccc1)C(=O)N[C@@H]1C(=O)N[C@@H](CC(C)C)C(=O)N/C=C\c2ccc(cc2)O[C@H]1C(C)C ?
result: > 50 µM

query: Field request: IC50 at 72 h | item: CC1(C)C=CC2=C(O1)C(=O)c1c(O)ccc(O[C@@H]3O[C@H](CO)[C@@H](O)[C@H](O)[C@H]3O)c1C2=O
result: 40.3 µM
